The reported numbers originate from patent EP0071374A1.

Test system: L-1210 leukemia
Assay: Anti-tumour effect against L-1210 leukemia on mouse
Type: in vivo
Details: T/C x 100 of average survival days; dose 10 mg/kg intraperitoneally once a day for 5 days, starting 24 hours after transplantation of 1 x 10^5 cells/animal
readout name: Prolongation ratio (%)
One number for each entry, in %.

Past entries and their recorded results:
[[record]]
molecule = "CCC(CO)(CO)NC(=O)N(CCCl)N=O"
result = 405

[[record]]
molecule = "CC(NC(=O)N(CCCl)N=O)C(O)CO (centres unmarked)"
result = 430

[[record]]
molecule = "O=NN(CCCl)C(=O)NCC(O)CO (centres unmarked)"
result = 420

[[record]]
molecule = "O=NN(CCCl)C(=O)NCCCl [BCNU, 1,3-Bis(2-chloroethyl)-1-nitrosourea, reference compound]"
result = 204


Give the value of Prolongation ratio reported for the following: CC(CO)(CO)NC(=O)N(CCCl)N=O
410
